molecular target: TNF-α (Homo sapiens, UniProt P01375); construct: purchased R&D 210-TA-020/CF; assay: TNF-α Induced HEK Blue Cellular Assay (secreted alkaline phosphatase expression, QUANTI-Blue); type: cell-based; conditions: HEK Blue TNFα reporter cells; TNF-α 100 μg/ml; 24 hrs at 37° C.; inhibition of secreted alkaline phosphatase; read-out: IC50 value
Sequence (P01375 77-233 limits assumed): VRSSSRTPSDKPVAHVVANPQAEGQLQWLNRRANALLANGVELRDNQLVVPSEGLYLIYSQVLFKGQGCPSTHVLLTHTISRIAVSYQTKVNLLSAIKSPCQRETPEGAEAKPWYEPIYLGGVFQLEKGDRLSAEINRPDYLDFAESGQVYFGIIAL

molecule	IC50
[2H]C([2H])([2H])N1C(=O)c2cccc(OC(F)F)c2[C@H]2C[C@@H]1c1nc3ccc(C#CC4(C)CN(C(=O)C(C)(C)C#N)C4)cc3n12 [Example 157]	100 to 1000 nM
[2H]C([2H])([2H])N1C(=O)c2cccc(OC(F)F)c2[C@H]2C[C@@H]1c1nc3ccc(C#CC(C)CN4CC(F)C4)cc3n12 (stereo partly drawn) [Example 248]	100 to 1000 nM
[2H]C([2H])([2H])N1C(=O)c2cccc(OC(F)F)c2[C@H]2C[C@@H]1c1nc3ccc(C#CC(N)CC(C)(C)O)cc3n12 (single isomer, unassigned) [Example 217]	10000 to 30000 nM
[2H]C([2H])([2H])N1C(=O)c2cccc(OC(F)F)c2[C@H]2C[C@@H]1c1nc3ccc(C#CC4(C)CNC4)cc3n12 [Example 158]	< 100 nM
[2H]C([2H])([2H])N1C(=O)c2cccc(OC(F)F)c2[C@H]2C[C@@H]1c1nc3ccc(C#CCOC(C)C)cc3n12 [Example 74]	< 100 nM
[2H]C([2H])([2H])N1C(=O)c2cccc(OC(F)F)c2[C@H]2C[C@@H]1c1nc3ccc(C#CC4(C)CCN(C(=O)C5CC5)C4)cc3n12 (stereo partly drawn) [Example 189]	10000 to 30000 nM
[2H]C([2H])([2H])N1C(=O)c2cccc(OC(F)F)c2[C@H]2C[C@@H]1c1nc3ccc(C#CC4CCN(C(=O)C5CC5)C4)cc3n12 (stereo partly drawn) [Example 201]	10000 to 30000 nM
[2H]C([2H])([2H])N1C(=O)c2cccc(OC(F)F)c2[C@H]2C[C@@H]1c1nc3ccc(C#CC4CN(C5CC5)C4)cc3n12 [Example 223]	100 to 1000 nM
[2H]C([2H])([2H])N1C(=O)c2cccc(OC(F)F)c2[C@H]2C[C@@H]1c1nc3ccc(C#CCOC(C)CO)cc3n12 (stereo partly drawn) [Example 72]	< 100 nM
[2H]C([2H])([2H])N1C(=O)c2cccc(OC(F)F)c2[C@H]2C[C@@H]1c1nc3ccc(C#CC4CCN(C5CC5)C4)cc3n12 (stereo partly drawn) [Example 234]	< 100 nM
[2H]C([2H])([2H])N1C(=O)c2cccc(OC(F)F)c2[C@H]2C[C@@H]1c1nc3ccc(C#CC4CCN(C)C4)cc3n12 (stereo partly drawn) [Example 76]	< 100 nM
[2H]C([2H])([2H])N1C(=O)c2cccc(OC(F)F)c2[C@H]2C[C@@H]1c1nc3ccc(C#CCCNC(=O)C(C)(C)O)cc3n12 [Example 213]	10000 to 30000 nM
[2H]C([2H])([2H])N1C(=O)c2cccc(OC(F)F)c2[C@H]2C[C@@H]1c1nc3ccc(C#CC4(C)CCN(C(=O)C(C)(C)C)C4)cc3n12 (stereo partly drawn) [Example 190]	100 to 1000 nM
[2H]C([2H])([2H])N1C(=O)c2cccc(OC(F)F)c2[C@H]2C[C@@H]1c1nc3ccc(C#CCC(F)(F)F)cc3n12 [Example 108]	< 100 nM
[2H]C([2H])([2H])N1C(=O)c2cccc(OC(F)F)c2[C@H]2C[C@@H]1c1nc3ccc(C#CCC(C)OC)cc3n12 (single isomer, unassigned) [Example 148]	< 100 nM
[2H]C([2H])([2H])N1C(=O)c2cccc(OC(F)F)c2[C@H]2C[C@@H]1c1nc3ccc(C#Cc4cn(C)nc4C#N)cc3n12 [Example 20]	< 100 nM
[2H]C([2H])([2H])N1C(=O)c2cccc(OC(F)F)c2[C@H]2C[C@@H]1c1nc3ccc(C#CCOC(F)F)cc3n12 [Example 131]	< 100 nM
[2H]C([2H])([2H])N1C(=O)c2cccc(OC(F)F)c2[C@H]2C[C@@H]1c1nc3ccc(C#CC4CC4)cc3n12 [Example 85]	< 100 nM
[2H]C([2H])([2H])N1C(=O)c2cccc(OC(F)F)c2[C@H]2C[C@@H]1c1nc3ccc(C#CCCNCC)cc3n12 [Example 152]	100 to 1000 nM
[2H]C([2H])([2H])N1C(=O)c2cccc(OC(F)F)c2[C@H]2C[C@@H]1c1nc3ccc(C#CCCN4CC(F)C4)cc3n12 [Example 228]	< 100 nM
[2H]C([2H])([2H])N1C(=O)c2cccc(OC(F)F)c2[C@H]2C[C@@H]1c1nc3ccc(C#C[C@@H](C)NCC)cc3n12 [Example 54]	10000 to 30000 nM
[2H]C([2H])([2H])N1C(=O)c2cccc(OC(F)F)c2[C@H]2C[C@@H]1c1nc3ccc(C#CC4COC4)cc3n12 [Example 80]	< 100 nM
[2H]C([2H])([2H])N1C(=O)c2cccc(OC(F)F)c2[C@H]2C[C@@H]1c1nc3ccc(C#CC4CNC4)cc3n12 [Example 69]	100 to 1000 nM
[2H]C([2H])([2H])N1C(=O)c2cccc(OC(F)F)c2[C@H]2C[C@@H]1c1nc3ccc(C#Cc4nnc(C)o4)cc3n12 [Example 28]	< 100 nM

----------
molecular target: TNF-α (Homo sapiens); construct: purchased R&D 210-TA-020/CF; assay: TNF-α Induced HEK Blue Cellular Assay (secreted alkaline phosphatase expression, QUANTI-Blue); type: cell-based; details: HEK Blue TNFα reporter cells; TNF-α 100 μg/ml; 24 hrs at 37° C.; inhibition of secreted alkaline phosphatase; read-out: IC50 value
measured parameter: IC50

> print(dat)
                         chemical.structure        assayed.target  observed
1  [2H]C([2H])([2H])N1C(=O)c2cccc(OC(F)F)c2[C@H]2C[C@@H]1c1nc3ccc(C#Cc4cnccn4)cc3n12  TNF-α (Homo sapiens)  < 100 nM
2  [2H]C([2H])([2H])N1C(=O)c2cccc(OC(F)F)c2[C@H]2C[C@@H]1c1nc3ccc(C#Cc4ccc(NC(C)=O)nc4)cc3n12  TNF-α (Homo sapiens)  < 100 nM
3  [2H]C([2H])([2H])N1C(=O)c2cccc(OC(F)F)c2[C@H]2C[C@@H]1c1nc3ccc(C#CC4CN(C(=O)C(C)(C)O)C4)cc3n12  TNF-α (Homo sapiens)  < 100 nM

----------
target: TNF-α (Homo sapiens); construct: purchased R&D 210-TA-020/CF; test: TNF-α Induced HEK Blue Cellular Assay (secreted alkaline phosphatase expression, QUANTI-Blue); format: cell-based; settings: HEK Blue TNFα reporter cells; TNF-α 100 μg/ml; 24 hrs at 37° C.; inhibition of secreted alkaline phosphatase; read-out: IC50 value
pIC50: −log10 of the molar value.
Listing: pIC50 of selected compounds
measured parameter: pIC50

compound	measured parameter	observed
[2H]C([2H])([2H])N1C(=O)c2cccc(OC(F)F)c2[C@H]2C[C@@H]1c1nc3ccc(C#CCCNC(=O)C(C)(C)C)cc3n12 [Example 215]	pIC50	4.52 to 5.00
[2H]C([2H])([2H])N1C(=O)c2cccc(OC(F)F)c2[C@H]2C[C@@H]1c1nc3ccc(C#CC4(C)CN(C(=O)C5CC5(F)F)C4)cc3n12 (stereo partly drawn) [Example 210]	pIC50	6.00 to 7.00
[2H]C([2H])([2H])N1C(=O)c2cccc(OC(F)F)c2[C@H]2C[C@@H]1c1nc3ccc(C#CC4(C)CN(C)C4)cc3n12 [Example 155]	pIC50	> 7.00
[2H]C([2H])([2H])N1C(=O)c2cccc(OC(F)F)c2[C@H]2C[C@@H]1c1nc3ccc(C#Cc4cnoc4)cc3n12 [Example 41]	pIC50	> 7.00
[2H]C([2H])([2H])N1C(=O)c2cccc(OC(F)F)c2[C@H]2C[C@@H]1c1nc3ccc(C#Cc4cnnn4C)cc3n12 [Example 12]	pIC50	5.00 to 6.00
[2H]C([2H])([2H])N1C(=O)c2cccc(OC(F)F)c2[C@H]2C[C@@H]1c1nc3ccc(C#CC4CC(F)(F)C4)cc3n12 [Example 150]	pIC50	> 7.00

----------
target: TNF-α (Homo sapiens); construct: purchased R&D 210-TA-020/CF; experiment: TNF-α Induced HEK Blue Cellular Assay (secreted alkaline phosphatase expression, QUANTI-Blue); type: cell-based; settings: HEK Blue TNFα reporter cells; TNF-α 100 μg/ml; 24 hrs at 37° C.; inhibition of secreted alkaline phosphatase; read-out: IC50 value
measured parameter: IC50

compound	observed
[2H]C([2H])([2H])N1C(=O)c2cccc(OC(F)F)c2[C@H]2C[C@@H]1c1nc3ccc(C#CC4(C)CN(CC(F)(F)F)C4)cc3n12 [Example 178]	100 to 1000 nM
[2H]C([2H])([2H])N1C(=O)c2cccc(OC(F)F)c2[C@H]2C[C@@H]1c1nc3ccc(C#CCC(O)C(C)O)cc3n12 (single isomer, unassigned) [Example 245]	< 100 nM
[2H]C([2H])([2H])N1C(=O)c2cccc(OC(F)F)c2[C@H]2C[C@@H]1c1nc3ccc(C#Cc4cncn4C)cc3n12 [Example 17]	< 100 nM
[2H]C([2H])([2H])N1C(=O)c2cccc(OC(F)F)c2[C@H]2C[C@@H]1c1nc3ccc(C#CCC(C)O)cc3n12 (single isomer, unassigned) [Example 140]	< 100 nM
[2H]C([2H])([2H])N1C(=O)c2cccc(OC(F)F)c2[C@H]2C[C@@H]1c1nc3ccc(C#CCOCC(F)(F)F)cc3n12 [Example 160]	< 100 nM
O=C1N[C@@H]2C[C@H](c3c(OC(F)F)cccc31)n1c2nc2ccc(C#Cc3cnn(CCO)c3)cc21 [Example 6]	< 100 nM
